Test system: Escherichia coli
method.summary: Antimicrobial activity against Escherichia coli str. K-12 substr. DH10B harboring plasmid CTX-M-2
Assay type: functional
assay.setup: K-12 DH10B
observed.property: MIC (µg/mL)
Answers are plain numbers, in µg/mL.

[[record]]
compound = "CO/N=C(\\C(=O)N[C@@H]1C(=O)N2C(C(=O)O)=C(COC(C)=O)CS[C@H]12)c1csc(N)n1 [CEFOTAXIME]"
observed_value = 128

[[record]]
compound = "CO/N=C(\\C(=O)N[C@@H]1C(=O)N2C(C(=O)[O-])=C(C[N+]3(C)CCCC3)CS[C@H]12)c1csc(N)n1"
observed_value = 4


Would you mind listing MIC for each of the following compounds?
1. C[C@@H](O)[C@H]1C(=O)N2C(C(=O)O)=C(S[C@@H]3CN[C@H](C(=O)Nc4cccc(C(=O)O)c4)C3)[C@H](C)[C@H]12
2. C[C@H]1[C@H](NC(=O)/C(=N\OC(C)(C)C(=O)O)c2csc(N)n2)C(=O)N1S(=O)(=O)O [AZTREONAM]
3. CC(C)(O/N=C(\C(=O)N[C@@H]1C(=O)N2C(C(=O)[O-])=C(C[n+]3ccccc3)CS[C@H]12)c1csc(N)n1)C(=O)O [CEFTAZIDIME]

0.016
12
8

* * *

Test system: Klebsiella pneumoniae
method.summary: Antimicrobial activity against CTX-M-59 producing Klebsiella pneumoniae with PFGE pulsotype E by Etest
Type: functional
Field: MIC. Provide a value for each of the compounds that follow.
Numbers only, in µg/mL.

Here's what some known entries look like.
[[record]]
sample_smiles = "C[C@H]1[C@H](NC(=O)/C(=N\\OC(C)(C)C(=O)O)c2csc(N)n2)C(=O)N1S(=O)(=O)O"
observed_value = 32

[[record]]
sample_smiles = "O=C(O)c1cn(C2CC2)c2cc(N3CCNCC3)c(F)cc2c1=O"
observed_value = 0.032

[[record]]
sample_smiles = "C[C@@H](O)[C@H]1C(=O)N2C(C(=O)O)=C(S[C@@H]3CN[C@H](C(=O)Nc4cccc(C(=O)O)c4)C3)[C@H](C)[C@H]12"
observed_value = 1.5


Shifting focus to the compound that follows.
Recall the recorded MIC for CC(C)(O/N=C(\C(=O)N[C@@H]1C(=O)N2C(C(=O)[O-])=C(C[n+]3ccccc3)CS[C@H]12)c1csc(N)n1)C(=O)O with Klebsiella pneumoniae and state it.
8

* * *

Tested on: Klebsiella pneumoniae
method.summary: Antimicrobial activity against CTX-M-2 producing Klebsiella pneumoniae with PFGE pulsotype I by Etest
Assay type: functional
Field: log10 of MIC. Provide a value for each of the molecules that follow.
# values: log10(MIC), units µg/mL

Here's what some known entries look like.
[[record]]
sample_smiles = "C[C@H]1[C@H](NC(=O)/C(=N\\OC(C)(C)C(=O)O)c2csc(N)n2)C(=O)N1S(=O)(=O)O"
observed_value = 1.38

[[record]]
sample_smiles = "CO/N=C(\\C(=O)N[C@@H]1C(=O)N2C(C(=O)[O-])=C(C[N+]3(C)CCCC3)CS[C@H]12)c1csc(N)n1"
observed_value = 2.41


Would you mind listing log10 of MIC for each of the following molecules?
1. CC(C)(O/N=C(\C(=O)N[C@@H]1C(=O)N2C(C(=O)[O-])=C(C[n+]3ccccc3)CS[C@H]12)c1csc(N)n1)C(=O)O
2. O=C(O)c1cn(C2CC2)c2cc(N3CCNCC3)c(F)cc2c1=O
3. C[C@@H](O)[C@H]1C(=O)N2C(C(=O)O)=C(S[C@@H]3CN[C@H](C(=O)Nc4cccc(C(=O)O)c4)C3)[C@H](C)[C@H]12

1. 0.60
2. -1.49
3. 0.00
